Origin of values: patent US11542273B2

Each record here notes measured DC50.
# test system: UniProtKB O60885
# assay summary: BRD4 protein degradation inducing action in cancer cells (immunofluorescence, Operetta)
# Type: cell-based
# condition notes: LNCaP cells, 6 hr treatment, fluorescence intensity

>  <molecule>
COC(=O)C[C@@H]1N=C(c2ccc(N3CCc4ccc(C(=O)N[C@H](C(=O)N5C[C@H](O)C[C@H]5C(=O)N[C@@H](C)c5ccc(-c6scnc6C)cc5)C(C)(C)C)cc4C3)cc2)c2c(sc(C)c2C)-n2c(C)nnc21 [Example 161]

>  <test system>
UniProtKB O60885

>  <DC50, nM>
0.075

$$$$
>  <molecule>
COC(=O)C[C@@H]1N=C(c2ccc(-c3ccc(C(=O)N[C@H](C(=O)N4C[C@H](O)C[C@H]4C(=O)NCc4ccc(-c5scnc5CO)cc4)C(C)(C)C)cc3)cc2)c2c(sc(C)c2C)-n2c(C)nnc21 [Example 220]

>  <test system>
UniProtKB O60885

>  <DC50, nM>
0.92

$$$$
>  <molecule>
COC(=O)C[C@@H]1N=C(c2ccc(-c3ccc(OC(C)C(=O)N[C@H](C(=O)N4C[C@H](O)C[C@H]4C(=O)N[C@@H](C)c4ccc(-c5scnc5C)cc4)C(C)(C)C)cc3)cc2)c2c(sc(C)c2C)-n2c(C)nnc21 (some centres unmarked) [Example 50]

>  <test system>
UniProtKB O60885

>  <DC50, nM>
0.61

$$$$
>  <molecule>
COC(=O)C[C@@H]1N=C(c2ccc(-c3ccc4nc(C(=O)N[C@H](C(=O)N5C[C@H](O)C[C@H]5C(=O)N[C@@H](C)c5ccc(-c6scnc6C)cc5)C(C)(C)C)oc4c3)cc2)c2c(sc(C)c2C)-n2c(C)nnc21 [Example 181]

>  <test system>
UniProtKB O60885

>  <DC50, nM>
0.031

$$$$
>  <molecule>
COC(=O)C[C@@H]1N=C(c2ccc(-c3ccc(CCC(=O)N[C@H](C(=O)N4C[C@H](O)C[C@H]4C(=O)N[C@@H](C)c4ccc(-c5scnc5C)cc4)C(C)(C)C)cc3)cc2)c2c(sc(C)c2C)-n2c(C)nnc21 [Example 28]

>  <test system>
UniProtKB O60885

>  <DC50, nM>
0.023

$$$$

----------
# test system: BRD4 protein (Homo sapiens (Human))
# assay summary: BRD4 protein degradation inducing action in cancer cells (immunofluorescence, Operetta)
# Type: cell-based
# condition notes: LNCaP cells, 6 hr treatment, fluorescence intensity
Each record here notes measured DC50.

>  <substance smiles>
COC(=O)C[C@@H]1N=C(c2ccc(-c3ccc4cc(C(=O)N[C@H](C(=O)N5C[C@H](O)C[C@H]5C(=O)N[C@@H](C)c5ccc(-c6scnc6C)cc5)C(C)(C)C)oc4c3)cc2)c2c(sc(C)c2C)-n2c(C)nnc21

>  <test system>
BRD4 protein (Homo sapiens (Human))

>  <DC50>
0.066 nM

$$$$
>  <substance smiles>
COC(=O)C[C@@H]1N=C(c2ccc(-c3ccc(/C=C/C(=O)N[C@H](C(=O)N4C[C@H](O)C[C@H]4C(=O)N[C@@H](C)c4ccc(-c5scnc5C)cc4)C(C)(C)C)cc3)cc2)c2c(sc(C)c2C)-n2c(C)nnc21

>  <test system>
BRD4 protein (Homo sapiens (Human))

>  <DC50>
0.085 nM

$$$$
>  <substance smiles>
COC(=O)C[C@@H]1N=C(c2ccc(Nc3cccc(OCC(=O)N[C@H](C(=O)N4C[C@H](O)C[C@H]4C(=O)N[C@@H](C)c4ccc(-c5scnc5C)cc4)C(C)(C)C)c3)cc2)c2c(sc(C)c2C)-n2c(C)nnc21

>  <test system>
BRD4 protein (Homo sapiens (Human))

>  <DC50>
0.45 nM

$$$$
>  <substance smiles>
Cc1ncsc1-c1ccc([C@H](C)NC(=O)[C@@H]2C[C@@H](O)CN2C(=O)[C@@H](NC(=O)/C=C/c2ccc(C3=N[C@@H](C)c4nnc(C)n4-c4sc(C)c(C)c43)cc2)C(C)(C)C)cc1

>  <test system>
BRD4 protein (Homo sapiens (Human))

>  <DC50>
0.37 nM

$$$$

----------
# Tested on: human Burkitt lymphoma Raji cell
# assay summary: Cytotoxic action on cancer cells (WST-8, 96 hr)
# Type: cell-based
# condition notes: 96 hr culture
pIC50: −log10 of the molar value.

>  <compound>
COC(=O)C[C@@H]1N=C(c2ccc(-c3ccc(OCC(=O)N[C@H](C(=O)N4C[C@H](O)C[C@H]4C(=O)N[C@@H](C)c4ccc(-c5scnc5C)cc4)C(C)(C)C)c(C#N)c3)cc2)c2c(sc(C)c2C)-n2c(C)nnc21 [Example 9]

>  <pIC50>
8.72

$$$$
>  <compound>
COC(=O)C[C@@H]1N=C(c2ccc(-c3ccc(C(=O)N[C@H](C(=O)N4C[C@H](O)C[C@H]4C(=O)N[C@@H](C)c4ccc(-c5scnc5C)cc4)C(C)(C)C)c(Cl)c3)cc2)c2c(sc(C)c2C)-n2c(C)nnc21 [Example 157]

>  <pIC50>
9.23

$$$$
>  <compound>
COC(=O)C[C@@H]1N=C(c2ccc(N3CC[C@@H](Oc4ccc5oc(C(=O)N[C@H](C(=O)N6C[C@H](O)C[C@H]6C(=O)N[C@@H](C)c6ccc(-c7scnc7C)cc6)C(C)(C)C)cc5c4)C3)cc2)c2c(sc(C)c2C)-n2c(C)nnc21 [Example 142]

>  <pIC50>
9.15

$$$$
>  <compound>
COC(=O)C[C@@H]1N=C(c2ccc(-c3ccc(OCCOCC(=O)N[C@H](C(=O)N4C[C@H](O)C[C@H]4C(=O)N[C@@H](C)c4ccc(-c5scnc5C)cc4)C(C)(C)C)c(C#N)c3)cc2)c2c(sc(C)c2C)-n2c(C)nnc21 [Example 8]

>  <pIC50>
8.24

$$$$

----------
# test system: BRD4 protein (Homo sapiens (Human))
# assay summary: BRD4 protein degradation inducing action in cancer cells (immunofluorescence, Operetta)
# Format: cell-based
# condition notes: LNCaP cells, 6 hr treatment, fluorescence intensity

>  <substance smiles>
COC(=O)C[C@@H]1N=C(c2ccc(-c3cncc(C(=O)N[C@H](C(=O)N4C[C@H](O)C[C@H]4C(=O)N[C@@H](C)c4ccc(-c5scnc5C)cc4)C(C)(C)C)n3)cc2)c2c(sc(C)c2C)-n2c(C)nnc21

>  <DC50 (nM)>
0.28

$$$$
>  <substance smiles>
COC(=O)C[C@@H]1N=C(c2ccc(-c3ccc(C(=O)N[C@H](C(=O)N4C[C@H](O)C[C@H]4C(=O)N[C@@H](C)c4ccc(-c5scnc5C)cc4)C(C)(C)C)cc3F)cc2)c2c(sc(C)c2C)-n2c(C)nnc21

>  <DC50 (nM)>
0.24

$$$$
>  <substance smiles>
COC(=O)C[C@@H]1N=C(c2ccc(-c3ccc(C(=O)N[C@H](C(=O)N4C[C@H](O)C[C@H]4C(=O)N[C@@H](C)c4ccc(-c5scnc5C)cc4)C(C)(C)C)s3)cc2)c2c(sc(C)c2C)-n2c(C)nnc21

>  <DC50 (nM)>
0.72

$$$$
>  <substance smiles>
COC(=O)C[C@@H]1N=C(c2ccc(-c3ccc(C(=O)N[C@H](C(=O)N4C[C@H](O)C[C@H]4C(=O)N[C@@H](C)c4ccc(-c5scnc5C)cc4)C(C)(C)C)c(Cl)c3)cc2)c2c(sc(C)c2C)-n2c(C)nnc21

>  <DC50 (nM)>
0.38

$$$$

----------
# test system: BRD4 protein (Homo sapiens (Human), UniProt O60885)
# assay summary: BRD4 protein degradation inducing action in cancer cells (immunofluorescence, Operetta)
# Format: cell-based
# condition notes: LNCaP cells, 6 hr treatment, fluorescence intensity
Each record here notes measured DC50.

>  <substance smiles>
COC(=O)N[C@@H]1N=C(c2ccc(-c3ccc(OCC(=O)N[C@H](C(=O)N4C[C@H](O)C[C@H]4C(=O)N[C@@H](C)c4ccc(-c5scnc5C)cc4)C(C)(C)C)cc3)cc2)c2c(sc(C)c2C)-n2c(C)nnc21

>  <test system>
BRD4 protein (Homo sapiens (Human), UniProt O60885)

>  <DC50 [nM]>
0.062

$$$$
>  <substance smiles>
COC(=O)C[C@@H]1N=C(c2ccc(-c3ccc(OCCOCC(=O)N[C@H](C(=O)N4C[C@H](O)C[C@H]4C(=O)N[C@@H](C)c4ccc(-c5scnc5C)cc4)C(C)(C)C)c(C#N)c3)cc2)c2c(sc(C)c2C)-n2c(C)nnc21

>  <test system>
BRD4 protein (Homo sapiens (Human), UniProt O60885)

>  <DC50 [nM]>
0.41

$$$$

----------
# test system: BRD4 protein (Homo sapiens (Human))
# assay summary: BRD4 protein degradation inducing action in cancer cells (immunofluorescence, Operetta)
# Format: cell-based
# condition notes: LNCaP cells, 6 hr treatment, fluorescence intensity
Each record here notes measured DC50.
quantity name: DC50 (nM)

>  <molecule>
CC(=O)NC1N=C(c2ccc(-c3ccc(OCC(=O)N[C@H](C(=O)N4C[C@H](O)C[C@H]4C(=O)N[C@@H](C)c4ccc(-c5scnc5C)cc4)C(C)(C)C)cc3)cc2)c2c(sc(C)c2C)-n2c(C)nnc21 (stereo partly shown) [Example 34]

>  <measured number>
0.098

$$$$
>  <molecule>
COC(=O)C[C@@H]1N=C(c2ccc(-c3ccc(C(=O)N[C@H](C(=O)N4C[C@H](O)C[C@H]4C(=O)N[C@@H](C)c4ccc(-c5scnc5C)cc4)C(C)C)cc3)cc2)c2c(sc(C)c2C)-n2c(C)nnc21 [Example 210]

>  <measured number>
0.26

$$$$
>  <molecule>
COC(=O)C[C@@H]1N=C(c2ccc(-c3ccc4sc(C(=O)N[C@H](C(=O)N5C[C@H](O)C[C@H]5C(=O)N[C@@H](C)c5ccc(-c6scnc6C)cc5)C(C)(C)C)nc4c3)cc2)c2c(sc(C)c2C)-n2c(C)nnc21 [Example 179]

>  <measured number>
0.11

$$$$
>  <molecule>
CCOC(=O)c1ncsc1-c1ccc(CNC(=O)[C@@H]2C[C@@H](O)CN2C(=O)[C@@H](NC(=O)c2ccc(-c3ccc(C4=N[C@@H](CC(=O)OC)c5nnc(C)n5-c5sc(C)c(C)c54)cc3)cc2)C(C)(C)C)cc1 [Example 219]

>  <measured number>
0.52

$$$$
